In this section, each of the molecules is paired with its reported IC50 ratio (A2bR/A2aR).
Target: adenosine A2b receptor (A2bR) (Homo sapiens (Human))
Test: Inhibition of adenosine A2b receptor cAMP signaling pathway (HTRF cAMP, CHO-K1/A2bR cells)
Format: cell-based
Conditions: Table 3; selectivity A2bR over A2aR

smiles_text=Cc1cc(-c2c(-c3ccc(F)cc3)nc(N)n3cnnc23)cc(C(F)(F)F)n1 endpoint_result=194
smiles_text=Cc1cc(-c2c(-c3ccc(Cl)cc3F)nc(N)n3cnnc23)cc(Cl)n1 endpoint_result=72

Ask: Identify measured IC50 ratio (A2bR/A2aR) obtained with adenosine A2b receptor (A2bR) (Homo sapiens (Human)) for "Cc1cc(-c2c(-c3ccccc3)nc(N)n3cnnc23)cc(C(F)(F)F)n1" .
Reply: 254

Ask: Find IC50 ratio (A2bR/A2aR) for "Cc1cc(-c2c(-c3ccccc3F)nc(N)n3cnnc23)cc(C)n1" on adenosine A2b receptor (A2bR) (Homo sapiens (Human)) and write it down.
Reply: 89

Ask: Fill in: IC50 ratio (A2bR/A2aR) on adenosine A2b receptor (A2bR) (Homo sapiens (Human)), entry "Cc1cc(-c2c(-c3ccccc3)nc(N)n3cnnc23)cc(Cl)n1"
Reply: 1032

Ask: Given "Cc1cc(-c2c(-c3ccc(F)cc3F)nc(N)n3cnnc23)cc(Cl)n1" , report its IC50 ratio (A2bR/A2aR) on adenosine A2b receptor (A2bR) (Homo sapiens (Human)).
Reply: 83

Ask: System adenosine A2b receptor (A2bR) (Homo sapiens (Human)). Read-out IC50 ratio (A2bR/A2aR). Item "Nc1nc(-c2ccccc2)c(-c2ccc3[nH]ncc3c2)c2nncn12" . Report value.
Reply: 350

Ask: Consider the molecule "Cc1cc(-c2c(-c3ccccc3F)nc(N)n3cnnc23)cc(C(F)(F)F)n1" tested on adenosine A2b receptor (A2bR) (Homo sapiens (Human)); state its IC50 ratio (A2bR/A2aR).
Reply: 76

Ask: Lab note: record IC50 ratio (A2bR/A2aR) of "Cc1cc(-c2c(-c3cccc(F)c3)nc(N)n3cnnc23)cc(C(F)(F)F)n1" tested on adenosine A2b receptor (A2bR) (Homo sapiens (Human)).
Reply: 157

* * *

Target: adenosine A2b receptor (A2bR) (Homo sapiens (Human), UniProt P29275)
Sequence (P29275 whole entry): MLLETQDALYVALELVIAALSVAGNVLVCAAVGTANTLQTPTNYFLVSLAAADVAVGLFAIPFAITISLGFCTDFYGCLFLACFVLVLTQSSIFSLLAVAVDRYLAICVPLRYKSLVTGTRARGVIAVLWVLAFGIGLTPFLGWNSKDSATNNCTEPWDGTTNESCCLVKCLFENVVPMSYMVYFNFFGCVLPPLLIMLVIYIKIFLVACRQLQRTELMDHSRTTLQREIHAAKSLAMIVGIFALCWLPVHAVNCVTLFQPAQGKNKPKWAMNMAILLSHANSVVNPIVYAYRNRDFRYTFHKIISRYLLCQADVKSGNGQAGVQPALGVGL
Assay: Inhibition of adenosine A2b receptor cAMP signaling pathway (HTRF cAMP, CHO-K1/A2bR cells)
Assay type: cell-based
Details: Table 3; CHO-K1/A2bR cells, ethyl carbazole 1 μM, cAMP HTRF
attribute.measured: IC50 (nM)
Just the number please, in nM, no unit attached.

See these solved cases before continuing.
smiles_text=Cc1cc(-c2c(-c3ccc(Cl)cc3F)nc(N)n3cnnc23)cc(Cl)n1 endpoint_result=255
smiles_text=Cc1cc(-c2c(-c3ccccc3F)nc(N)n3cnnc23)cc(CF)n1 endpoint_result=209
smiles_text=Cc1cc(-c2c(-c3ccc(F)cc3F)nc(N)n3cnnc23)cc(C(F)(F)F)n1 endpoint_result=793

Now, please, on to the next molecule.
Ask: Output IC50 of "Cc1cc(-c2c(-c3ccc(F)cc3F)nc(N)n3cnnc23)cc(Cl)n1"
Reply: 170

* * *

Biological target: adenosine A1 receptor (A1R) (Homo sapiens (Human))
Sequence (P30542 whole entry): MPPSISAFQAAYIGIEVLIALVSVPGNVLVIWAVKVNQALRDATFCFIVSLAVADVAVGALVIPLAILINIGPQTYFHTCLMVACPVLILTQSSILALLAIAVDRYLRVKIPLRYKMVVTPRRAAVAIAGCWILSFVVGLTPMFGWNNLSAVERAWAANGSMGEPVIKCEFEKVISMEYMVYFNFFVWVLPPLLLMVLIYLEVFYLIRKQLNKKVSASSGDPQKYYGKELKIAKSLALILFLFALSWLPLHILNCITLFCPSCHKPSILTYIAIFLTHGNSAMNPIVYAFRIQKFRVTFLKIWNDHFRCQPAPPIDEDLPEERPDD
Experiment: Inhibition of adenosine A1 receptor cAMP signaling pathway (HTRF cAMP, CHO-K1/A1R cells)
Type: cell-based
Conditions: Table 2; CHO-K1/A1R cells, forskolin 10 μM, CPA 10 nM, cAMP HTRF
IC50: recorded values
Respond numerically; units are nM and should not be typed.

# count of solved cases: 3
smiles_text=Cc1cc(-c2c(-c3ccccc3)nc(N)n3cnnc23)cc(Cl)n1 endpoint_result=37
smiles_text=Cc1cc(-c2c(-c3ccc(F)cc3)nc(N)n3cnnc23)cc(C)n1 endpoint_result=66
smiles_text=Nc1nc(-c2ccccc2)c(-c2ccc3ncccc3c2)c2nncn12 endpoint_result=18

API: the following record is the query input.
Ask: Give IC50 for this entry on adenosine A1 receptor (A1R) (Homo sapiens (Human)): "Cc1cc(-c2c(-c3ccc(F)cc3)nc(N)n3cnnc23)cc(CF)n1"
Reply: 222
